Source: paper PMC7796031

test: MTT cell cytotoxicity assay of coumarin derivatives; type: cell-based; settings: human, Hep 3B cells, 72 h treatment

# molecule, IC50 at 72 h / µM
rows = [
    ("CCCCCOc1cc2ccc(=O)oc2cc1OCCCCC [Compound 47, 6,7-Dipentoxycoumarin]", 31),
]

---

test: Preliminary pharmacokinetic study, plasma concentration by RP-HPLC-fluorescence; assay type: in vivo, C57BL/6 mice; conditions: Table S1, Study 2 mouse 3, dose given 0.5 mg i.p., 320 min
metric_name: Blood concentration, Cal. Conc. (µg/mL)

# smiles_structure, measured_value
measured = [
    ("COc1cc2ccc(=O)oc2cc1OC", 0.04),
]
